Tested on: primary human fibroblasts
Assay: PDGF-induced fibroblast proliferation (MTS assay)
Details: read-out: fifty-percent inhibitory concentration (IC50), PDGF-induced fibroblast proliferation; short-term exposure
pIC50: −log10 of the molar value.
property: pIC50

compound	property	endpoint result
COC(=O)c1ccc2c(c1)NC(=O)/C2=C(\Nc1ccc(N(C)C(=O)CN2CCN(C)CC2)cc1)c1ccccc1 [Vargatef]	pIC50	~8.52

**Q:** Note down pIC50 recorded for CNC(=O)c1cc(Oc2ccc(NC(=O)Nc3ccc(Cl)c(C(F)(F)F)c3)cc2)ccn1 [Sorafinib, sorafinib]
**A:** ~7.52

* * *

Assay: in vivo
Settings: Sprague-Dawley, rat, po, 5.6 mg/kg
property: Cmax (ng/mL)
Value expressed in ng/mL; do not type the unit.

**Q:** Note down Cmax recorded for Cc1ccc(NC(=O)c2ccc(CN3CCN(C)CC3)cc2)cc1Nc1nccc(-c2cccnc2)n1
**A:** 1100

* * *

Assay: in vivo
Conditions: Sprague-Dawley, rat, inhaled or intranasal, 1 mg/kg
property: AUC

**Q:** Note down AUC recorded for Cc1ccc(NC(=O)c2ccc(CN3CCN(C)CC3)cc2)cc1Nc1nccc(-c2cccnc2)n1 [imatinib]
**A:** 40 ng·h/mL

* * *

Assay: in vivo
Settings: Sprague-Dawley, rat, inhaled or intranasal, 1 mg/kg
property: Cmax (ng/mL)
Value expressed in ng/mL; do not type the unit.

**Q:** Note down Cmax recorded for Cc1ccc(NC(=O)c2ccc(CN3CCN(C)CC3)cc2)cc1Nc1nccc(-c2cccnc2)n1
**A:** 20

* * *

Test: in vivo
Details: Sprague-Dawley, rat, po, 5.6 mg/kg
property: AUC (ng·h/mL)
Value expressed in ng·h/mL; do not type the unit.

**Q:** Note down AUC recorded for Cc1ccc(NC(=O)c2ccc(CN3CCN(C)CC3)cc2)cc1Nc1nccc(-c2cccnc2)n1
**A:** 4900
